# target under test: MMP-2 (Homo sapiens)
# Construct: purchased SIGMA PF023
# Sequence (P08253 110-660): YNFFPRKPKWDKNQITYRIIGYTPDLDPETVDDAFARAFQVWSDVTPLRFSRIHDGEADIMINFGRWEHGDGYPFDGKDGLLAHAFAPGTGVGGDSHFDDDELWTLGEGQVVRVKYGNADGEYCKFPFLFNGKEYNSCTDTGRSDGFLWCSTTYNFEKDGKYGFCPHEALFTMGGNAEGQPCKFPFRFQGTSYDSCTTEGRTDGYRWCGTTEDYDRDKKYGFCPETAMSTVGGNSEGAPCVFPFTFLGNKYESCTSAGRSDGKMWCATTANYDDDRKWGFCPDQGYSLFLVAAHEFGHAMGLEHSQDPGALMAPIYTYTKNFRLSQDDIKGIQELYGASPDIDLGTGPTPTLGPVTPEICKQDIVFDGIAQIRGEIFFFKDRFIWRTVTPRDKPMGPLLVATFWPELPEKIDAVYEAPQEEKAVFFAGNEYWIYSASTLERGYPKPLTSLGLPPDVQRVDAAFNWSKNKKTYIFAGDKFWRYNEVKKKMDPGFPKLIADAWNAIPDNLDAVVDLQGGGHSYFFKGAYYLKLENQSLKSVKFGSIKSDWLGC
# assay text: FRET peptide cleavage efficiency with MMP-2
# Assay type: biochemical
# condition label: t = 15 min; 200 uM linker, 1 ug/ml protease, 37° C., buffer C pH 7.5
Square brackets hold non-standard residues; d marks the D form. Ends that are not written are not given here. Tyr(3-NO2) = N[C@@H](Cc1ccc(O)c([N+](=O)[O-])c1)C(=O)O; Nle = CCCC[C@H](N)C(=O)O; 2Abz = Nc1ccccc1C(=O)O
In this section, each of the substances is paired with its reported % cleavage MMP-2 t = 15 min.
Entry rule: numbers only, all in %.

RQRRS-Nle-PLGLAG ([2Abz]RQRRS[Nle]PLGLAG[Tyr(3-NO2)]-NH2) [LNK025] | 64
SGRVLPAGLVG ([2Abz]SGRVLPAGLVG[Tyr(3-NO2)]-NH2) [LNK007] | 99
RQRRSAPLGLAG ([2Abz]RQRRSAPLGLAG[Tyr(3-NO2)]-NH2) [LNK009] | 72

From here, focus on the item given below.
Note to self: % cleavage MMP-2 t = 15 min recorded for RYGKSAPLGLAG ([2Abz]RYGKSAPLGLAG[Tyr(3-NO2)]-NH2) [LNK027] was 66
